The measured values listed here are drawn from patent US20240376121A1.

# ASSAY TARGET: HiBit-BRM fusion protein (Homo sapiens, UniProt P51531)
# Construct: expressed in transfected cells
# Sequence (P51531 whole entry, the tested form may be a part): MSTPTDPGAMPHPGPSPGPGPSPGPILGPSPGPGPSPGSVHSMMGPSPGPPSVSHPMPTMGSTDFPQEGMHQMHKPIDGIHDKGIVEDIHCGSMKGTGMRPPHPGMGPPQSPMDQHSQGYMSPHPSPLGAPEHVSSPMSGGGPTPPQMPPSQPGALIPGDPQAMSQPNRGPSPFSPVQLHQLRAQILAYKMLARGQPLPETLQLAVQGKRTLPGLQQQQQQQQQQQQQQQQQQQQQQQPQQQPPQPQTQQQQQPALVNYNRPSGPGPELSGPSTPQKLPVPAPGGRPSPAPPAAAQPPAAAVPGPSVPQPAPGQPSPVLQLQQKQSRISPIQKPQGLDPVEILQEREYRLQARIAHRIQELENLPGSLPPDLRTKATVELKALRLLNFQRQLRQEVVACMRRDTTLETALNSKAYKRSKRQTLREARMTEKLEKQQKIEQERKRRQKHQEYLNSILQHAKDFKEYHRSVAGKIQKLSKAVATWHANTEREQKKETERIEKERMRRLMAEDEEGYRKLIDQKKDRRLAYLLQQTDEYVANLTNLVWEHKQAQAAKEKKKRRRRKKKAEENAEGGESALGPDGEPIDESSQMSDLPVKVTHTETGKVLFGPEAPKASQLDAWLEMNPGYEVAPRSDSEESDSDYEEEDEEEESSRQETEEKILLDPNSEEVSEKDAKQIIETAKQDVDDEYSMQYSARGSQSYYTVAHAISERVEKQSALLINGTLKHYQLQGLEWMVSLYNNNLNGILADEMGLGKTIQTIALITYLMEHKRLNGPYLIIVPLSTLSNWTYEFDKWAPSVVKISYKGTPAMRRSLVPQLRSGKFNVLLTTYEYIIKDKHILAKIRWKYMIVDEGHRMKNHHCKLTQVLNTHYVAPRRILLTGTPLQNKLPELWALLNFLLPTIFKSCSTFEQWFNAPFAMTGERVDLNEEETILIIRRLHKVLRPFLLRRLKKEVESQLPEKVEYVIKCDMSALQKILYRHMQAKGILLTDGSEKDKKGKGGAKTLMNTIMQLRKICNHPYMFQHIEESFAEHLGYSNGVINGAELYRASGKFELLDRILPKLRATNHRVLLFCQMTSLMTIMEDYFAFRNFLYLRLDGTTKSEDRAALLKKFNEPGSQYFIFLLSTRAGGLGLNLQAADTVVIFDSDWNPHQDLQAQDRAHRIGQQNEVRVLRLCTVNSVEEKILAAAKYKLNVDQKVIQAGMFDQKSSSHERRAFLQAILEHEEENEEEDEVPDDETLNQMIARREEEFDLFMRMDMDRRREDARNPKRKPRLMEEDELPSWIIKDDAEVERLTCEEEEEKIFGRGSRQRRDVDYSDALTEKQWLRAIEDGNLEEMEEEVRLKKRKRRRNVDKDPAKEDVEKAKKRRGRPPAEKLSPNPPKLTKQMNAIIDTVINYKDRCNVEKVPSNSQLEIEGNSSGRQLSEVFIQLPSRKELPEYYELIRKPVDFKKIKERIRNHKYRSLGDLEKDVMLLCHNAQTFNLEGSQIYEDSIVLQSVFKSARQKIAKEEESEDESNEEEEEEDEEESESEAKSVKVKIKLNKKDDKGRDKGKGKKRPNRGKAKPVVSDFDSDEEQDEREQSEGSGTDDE
# ASSAY PROTOCOL: HiBiT-BRM cell-based degradation assay (Nano-Glo HiBiT Lytic Detection)
# MEASUREMENT PARAMETERS: stable HeLa cell line expressing HiBiT-BRM, 24 h incubation; read-out: BRM HiBit Degradation IC50
# Lookup of reported DC50 keyed by entry

Take a look at these entries with their results.
# SMILES REPRESENTATION, DC50
measured = [
    ("Cc1ncsc1-c1ccc([C@H](C)NC(=O)[C@@H]2C[C@@H](O)CN2C(=O)[C@@H](c2cc(OCCN3CCC(c4sc5nnc(-c6ccccc6O)cc5c4F)CC3)no2)C(C)C)cc1", "≥ 100 nM"),
    ("Cc1ncsc1-c1ccc(CNC(=O)[C@@H]2C[C@@H](O)CN2C(=O)[C@@H](NC(=O)CCC(=O)N2CCC(c3cc4nnc(-c5ccccc5O)cc4s3)CC2)C(C)(C)C)cc1", "≥ 100 nM"),
    ("Cc1ncsc1-c1ccc(CNC(=O)[C@@H]2C[C@@H](O)CN2C(=O)[C@@H](NC(=O)CCCCC(=O)N2CC(c3sc4nnc(-c5ccccc5O)cc4c3C)C2)C(C)(C)C)cc1", "≥ 1000 nM"),
    ("Cc1ncsc1-c1ccc([C@H](C)NC(=O)[C@@H]2C[C@@H](O)CN2C(=O)[C@@H](c2cc(OCCN3CCc4sc5nnc(-c6ccccc6O)cc5c4C3)no2)C(C)C)cc1", "≥ 1000 nM"),
    ("Cc1ncsc1-c1ccc([C@H](C)NC(=O)[C@@H]2C[C@@H](O)CN2C(=O)[C@H](c2cc(N3CCC(C(=O)N4CC(c5cc6cc(-c7ccccc7O)nnc6s5)C4)CC3)no2)C(C)C)cc1", "≥ 1000 nM"),
]

What measured DC50 goes with Cc1ncsc1-c1ccc([C@H](C)NC(=O)[C@@H]2C[C@@H](O)CN2C(=O)[C@@H](c2cc(C34CC(CN5CCC(c6sc7nnc(-c8ccccc8O)cc7c6C)CC5)(C3)C4)no2)C(C)C)cc1 ?
< 10 nM

What measured DC50 goes with Cc1ncsc1-c1ccc([C@H](C)NC(=O)[C@@H]2C[C@@H](O)CN2C(=O)[C@@H](c2cc(OCCN3CC(c4sc5nnc(-c6ccccc6O)cc5c4C)C3)no2)C(C)C)cc1 ?
≥ 10 nM

###

# ASSAY TARGET: HiBit-BRM fusion protein (Homo sapiens, UniProt P51531)
# Construct: expressed in transfected cells
# ASSAY PROTOCOL: HiBiT-BRM cell-based degradation assay (Nano-Glo HiBiT Lytic Detection)
# MEASUREMENT PARAMETERS: stable HeLa cell line expressing HiBiT-BRM, 24 h incubation; read-out: BRM HiBit Degradation IC50
MEASUREMENT LABEL: DC50

Take a look at these entries with their results.
# COMPOUND, DC50
records = [
    ("Cc1ncsc1-c1ccc([C@H](C)NC(=O)[C@@H]2C[C@@H](O)CN2C(=O)[C@@H](c2cc(OCCN3CC(Cc4csc5nnc(-c6ccccc6O)cc45)C3)no2)C(C)C)cc1 [Compound 111]", "≥ 1000 nM"),
    ("Cc1ncsc1-c1ccc([C@H](C)NC(=O)[C@@H]2C[C@@H](O)CN2C(=O)[C@@H](c2cc(OCCN3CC(c4c(C)sc5nnc(-c6ccccc6O)cc45)C3)no2)C(C)C)cc1 [Compound 14]", "≥ 1000 nM"),
    ("Cc1ncsc1-c1ccc([C@H](C)NC(=O)[C@@H]2C[C@@H](O)CN2C(=O)[C@@H](c2cc(N3CCN(CC(=O)N4CC(c5cc6cc(-c7ccccc7O)nnc6s5)C4)CC3)no2)C(C)C)cc1 [Compound 6]", "≥ 100 nM"),
]

Now let's try a different one.
What measured DC50 goes with Cc1ncsc1-c1ccc([C@H](C)NC(=O)[C@@H]2C[C@@H](O)CN2C(=O)[C@@H](c2cc(N3C[C@H]4C[C@@H]3CN4C(=O)[C@@H]3CCc4sc5nnc(-c6ccccc6O)cc5c4C3)no2)C(C)C)cc1 [Compound 42] ?
≥ 100 nM
